Target: the molecule itself
Test: SEC
quantity: stoichiometry N
// response body must contain only the number

Bacillus subtilis Fur H37A (site 2 mutant) (natural protein, UniProt P54574 1-149, looked up) MENRIDRIKKQLHSSSYKLTPQREATVRVLLENEEDALSAEDVYLLVKEKSPEIGLATVYRTLELLTELKVVDKINFGDGVSRYDLRKEGAAHFHHHLVCMECGAVDEIEEDLLEDVEEIIERDWKFKIKDHRLTFHGICHRCNGKETE	2
Bacillus subtilis Fur H96A (site 3 mutant) (natural protein, UniProt P54574 1-149, looked up) MENRIDRIKKQLHSSSYKLTPQREATVRVLLENEEDHLSAEDVYLLVKEKSPEIGLATVYRTLELLTELKVVDKINFGDGVSRYDLRKEGAAHFHAHLVCMECGAVDEIEEDLLEDVEEIIERDWKFKIKDHRLTFHGICHRCNGKETE	2

Please find the next protein below.
I'd like to know its stoichiometry N. The protein in question is Bacillus subtilis Fur H97A (site 2 mutant) (natural protein, UniProt P54574 1-149, looked up) MENRIDRIKKQLHSSSYKLTPQREATVRVLLENEEDHLSAEDVYLLVKEKSPEIGLATVYRTLELLTELKVVDKINFGDGVSRYDLRKEGAAHFHHALVCMECGAVDEIEEDLLEDVEEIIERDWKFKIKDHRLTFHGICHRCNGKETE
2
